molecular target: SCV helicase (nsp13) ATPase activity (Severe acute respiratory syndrome coronavirus, UniProt P0C6X7)

| COMPOUND | IC50 |
| --- | --- |
| COc1cc(CC(C)c2nc(C)c(O)c(C34OC5(O)CC(O)(CC(O)(C5)O3)O4)c2CO)ccc1O (racemic) | 2800 nM |
| COc1cc(C23OC4(O)CC(O)(CC(O)(C4)O2)O3)ccc1O | 680 nM |
| Cc1ncc(CO)c(C23OC4(O)CC(O)(CC(O)(C4)O2)O3)c1O | 2300 nM |

----------
test system: SCV (strain GZ50) in FRhK-4 cells; test: microbe, parasite or virus in culture; format: cell-based, SARS coronavirus; conditions: Severe acute respiratory syndrome coronavirus, FRhK-4, read-out: EC50 (antiviral, viral titre)
READOUT NAME: EC50

| SMILES STR | READOUT NAME | ENDPOINT RESULT |
| --- | --- | --- |
| Cc1ncc(CO)c(C23OC4(O)CC(O)(CC(O)(C4)O2)O3)c1O | EC50 | < 10 µM |
